# cytotoxicity at 70.5 h listing for each entry below
test: Human HepG2 cell viability assay in 384 well format; assay type: toxicity, cell-based; parameters: dose 125 nL, time 70.5 hour; concentration not given beside the values; conditions: HepG2 cells, read-out: Inhibition
Just the number in %, nothing appended.

Example compounds with recorded cytotoxicity at 70.5 h:
Sample `Cc1nn(CCNC(=O)c2cc(C3CC3)[nH]n2)c(C)c1Cl` — what was its cytotoxicity at 70.5 h?
3.19

Sample Cn1ccc(C(=O)N2CCOC(c3ccccn3)C2)cc1=O (stereo unspecified) — what was its cytotoxicity at 70.5 h?
6.02

Sample `O=C(NC1CCCC1)c1ccnc(C2CCNCC2)c1` — what was its cytotoxicity at 70.5 h?
-1.39

Sample `CCc1cc(-c2cc[nH]n2)nc(N2CCOCC2)n1` — what was its cytotoxicity at 70.5 h?
15.6

Sample O=C(NCC(F)(F)F)C(c1cccnc1)N1CCOCC1 (stereo unspecified) — what was its cytotoxicity at 70.5 h?
-5.8

Further cases:
Sample CN(C)CC(=O)N1CCOC2(CCCN(c3ncccc3F)C2)C1 (stereo unspecified) — what was its cytotoxicity at 70.5 h?
4.23

###

# cytotoxicity at 70.5 h listing for each entry below
assay: Human HepG2 cell viability assay in 384 well format; type: toxicity, cell-based; set-up: dose 125 nL, time 70.5 hour; concentration not given beside the values; details: HepG2 cells, read-out: Inhibition
Just the number in %, nothing appended.

Sample `Cc1cccc(N2Cc3c(NC4CCCC4)ncnc3N(C)CC2=O)c1` — what was its cytotoxicity at 70.5 h?
-4.33

Sample `CC1CCN(c2nc3ncc4c(c3c(=O)[nH]2)CC(C)(C)CC4=O)CC1` — what was its cytotoxicity at 70.5 h?
-4.25

Sample `CNC(=O)CCCNCc1c(C)nn(C)c1N(C)C` — what was its cytotoxicity at 70.5 h?
-1.74

Sample `CCN1CCN(C(=O)c2[nH]c3ccccc3c2Cl)[C@H]2CS(=O)(=O)C[C@H]21` — what was its cytotoxicity at 70.5 h?
-2.45

Sample `Cc1cc(C)c(CNC(=O)N(C)Cc2ccoc2)c(=O)[nH]1` — what was its cytotoxicity at 70.5 h?
-2.92

Further cases:
Sample `c1cncc(CNCc2cccs2)c1` — what was its cytotoxicity at 70.5 h?
26

Sample Cc1cnc(CCNC(Cc2ccncc2)C(F)(F)F)s1 (stereo unspecified) — what was its cytotoxicity at 70.5 h?
-7.12

Sample `CN1CCC(c2n[nH]c(=O)n2-c2cccc(Cl)c2)CC1` — what was its cytotoxicity at 70.5 h?
10.8

Sample `O=C(CC1CC1)N1CCC2(CC1)C(=O)NCCN2Cc1ccccc1` — what was its cytotoxicity at 70.5 h?
10.6

Sample `CCNC(=O)[C@@H]1C[C@H](N)CN1Cc1ccc(-c2cc[nH]n2)o1` — what was its cytotoxicity at 70.5 h?
9.98

Sample `O=C(NCC1CC1)c1nnc2ccc(Cl)cc2n1` — what was its cytotoxicity at 70.5 h?
-13.3

###

test: Human HepG2 cell viability assay in 384 well format; assay type: toxicity, cell-based; design: dose 125 nL, time 70.5 hour; concentration not given beside the values; settings: HepG2 cells, read-out: Inhibition
RECORDED ENDPOINT: cytotoxicity at 70.5 h
Provide the measurement as a number trailed by its unit.

Example molecules with recorded cytotoxicity at 70.5 h:
Sample CCc1nc(N2CCCC(O)(CO)CC2)ncc1C (centres undefined) — what was its cytotoxicity at 70.5 h?
-0.208%

Sample Cc1cc(C)n(CC(C)NCCN2CCc3ccccc32)n1 (centres undefined) — what was its cytotoxicity at 70.5 h?
-3.59%

Sample `COc1ccc(CN2CCCn3cncc3C2)cc1Cn1cncn1` — what was its cytotoxicity at 70.5 h?
-8.65%

Sample Cc1nccn1C1CCCN(C(=O)c2ccc3cc[nH]c3c2)C1 (centres undefined) — what was its cytotoxicity at 70.5 h?
-1.7%

Sample `O=C(CNC(=O)N1CCc2c([nH]c3ccc(Cl)cc23)C1)NCCCO` — what was its cytotoxicity at 70.5 h?
-18.9%

Sample `COc1ccc(C(=O)N2Cc3c(Cn4ccnc4)nn(C)c3C2)cc1` — what was its cytotoxicity at 70.5 h?
-8.74%

Further cases:
Sample `CN(Cc1cnn(C)c1)C(=O)c1ccnc(OC2CCC2)c1` — what was its cytotoxicity at 70.5 h?
15.8%
